IC50, NIH/3T3/KZ170 NF-kB luciferase reporter values for the binders below.
Target: T1, human IL-17F homodimer (human, UniProt Q96PD4 31-163)
T1 sequence: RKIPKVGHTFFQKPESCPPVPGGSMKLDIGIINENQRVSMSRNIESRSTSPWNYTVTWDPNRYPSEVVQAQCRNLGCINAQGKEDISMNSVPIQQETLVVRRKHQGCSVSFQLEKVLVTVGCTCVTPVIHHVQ
Test: cell-based or functional assay
Lab book: enter the figure in nM, no units written.

Observe how each entry below is paired with its result.
## Input Let me know recorded IC50, NIH/3T3/KZ170 NF-kB luciferase reporter for 339-104 (antibody, human IgG1, V domains shown) VH: QVQLVQSGAEVKKPGASVKVSCKASGYTFNEYTMHWVKQSHGQRLEWMGGINPNSGGVSYNQNFKGKATLTVDTSSSTAYMELSSLRSEDTAVFYCARGGDGYYTNYFDIDYWGQGTTVTVSS VL: DIQMTQSPSSLSASVGDRVTITCSASSSVNYMHWYQQKPGKVPKLLIYDTSKLASGVPSRFSGSGSGTDFTLTISSLQPEDVATYYCQQWNSHPLTFGQGTKLEIK , thanks.
## Output 0.83

## Input Determine from records and report IC50, NIH/3T3/KZ170 NF-kB luciferase reporter for 339-35 (antibody, human IgG1, V domains shown) VH: QVQLVQSGAEVKKPGASVKVSCKASGYTFNEYTMHWVKQSHGQRLEWMGGINPNSGGVSYNQNFKGRVTITRDTSASTAYMELSSLRSEDTAVYYCARGGDGYYTNYFDIDYWGQGTTVTVSS VL: EIVLTQSPDFQSVTPKEKVTITCSASSSVNYMHWYQQKPDQSPKLLIKDTSKLASGVPSRFSGSGSGTDFTLTINSLEAEDAATYYCQQWNSHPLTFGQGTKLEIK
## Output 0.64

## Input Determine from records and report IC50, NIH/3T3/KZ170 NF-kB luciferase reporter for 339-38 (antibody, human IgG1, V domains shown) VH: QVQLVQSGAEVKKPGASVKVSCKASGYTFNEYTMHWVKQSHGQRLEWMGGINPNSGGVSYNQNFKGKATLTVDTSASTAYMELSSLRSEDTAVYYCARGGDGYYTNYFDIDYWGQGTTVTVSS VL: EIVLTQSPDFQSVTPKEKVTITCSASSSVNYMHWYQQKPDQSPKLLIKDTSKLASGVPSRFSGSGSGTDFTLTINSLEAEDAATYYCQQWNSHPLTFGQGTKLEIK
## Output 0.27

Continuing:
## Input Provide IC50, NIH/3T3/KZ170 NF-kB luciferase reporter value for the following binder: 339-105 (antibody, human IgG1, V domains shown) VH: QVQLVQSGAEVKKPGASVKVSCKASGYTFTEYTMHWVRQAPGQRLEWMGGINPNSGGVSYNQNFKGRVTITRDTSSSTAYMELSSLRSEDTAVFYCARGGDGYYTNYFDIDYWGQGTTVTVSS VL: DIQMTQSPSSLSASVGDRVTITCSASSSVNYMHWYQQKPGKVPKLLIYDTSKLASGVPSRFSGSGSGTDFTLTISSLQPEDVATYYCQQWNSHPLTFGQGTKLEIK
## Output 2.6

## Input Retrieve IC50, NIH/3T3/KZ170 NF-kB luciferase reporter measured for 339-127 (antibody, human IgG1, V domains shown) VH: QVQLVQSGAEVKKPGASVKVSCKASGYTFNEYTMHWVKQSHGQRLEWMGGINPNSGGVSYNQNFKGRVTITRDTSASTAYMELSSLRSEDTAVYYCARGGDGYYTNYFDIDYWGQGTTVTVSS VL: DIQMTQSPSSLSASVGDRVTITCSASSSVNYMHWYQQKPGKVPKLLIYDTSKLASGVPSRFSGSGSGTDFTLTISSLQPEDVATYYCQQWNSHPLTFGQGTKLEIK and print it.
## Output 0.5

## Input Output IC50, NIH/3T3/KZ170 NF-kB luciferase reporter of 339-37 (antibody, human IgG1, V domains shown) VH: QVQLVQSGAEVKKPGASVKVSCKASGYTFTEYTMHWVRQAPGQRLEWMGGINPNSGGVSYNQNFKGRVTITRDTSSSTAYMELSSLRSEDTAVFYCARGGDGYYTNYFDIDYWGQGTTVTVSS VL: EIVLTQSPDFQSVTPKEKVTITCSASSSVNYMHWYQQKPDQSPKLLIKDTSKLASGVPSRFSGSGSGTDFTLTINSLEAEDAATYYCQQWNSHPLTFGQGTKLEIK
## Output 3.5

## Input Give the value of IC50, NIH/3T3/KZ170 NF-kB luciferase reporter reported for the following: 339-128 (antibody, human IgG1, V domains shown) VH: QVQLVQSGAEVKKPGASVKVSCKASGYTFTEYTMHWVRQAPGQRLEWMGGINPNSGGVSYNQNFKGKATLTVDTSASTAYMELSSLRSEDTAVYYCARGGDGYYTNYFDIDYWGQGTTVTVSS VL: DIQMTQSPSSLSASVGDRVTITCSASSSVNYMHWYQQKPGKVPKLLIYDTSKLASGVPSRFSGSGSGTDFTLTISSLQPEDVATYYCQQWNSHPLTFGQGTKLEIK
## Output 0.25

## Input Item 339-125 (antibody, human IgG1, V domains shown) VH: QVQLVQSGAEVKKPGASVKVSCKASGYTFNEYTMHWVKQSHGQRLEWMGGINPNSGGVSYNQNFKGKATLTVDTSASTAYMELSSLRSEDTAVYYCARGGDGYYTNYFDIDYWGQGTTVTVSS VL: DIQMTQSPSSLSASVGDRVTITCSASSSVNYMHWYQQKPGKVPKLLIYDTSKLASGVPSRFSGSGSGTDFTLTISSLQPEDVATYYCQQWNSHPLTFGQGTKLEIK : provide IC50, NIH/3T3/KZ170 NF-kB luciferase reporter
## Output 0.83

Just for reference, patent US20170275357A1 is where these values come from.
